Target: hA2AAR (Homo sapiens, UniProt P29274)
Construct: expressed in transfected cells; host or cells: HEK293 cells stably expressing hA2AAR (membrane preparation); gift from Dr. J. Wang, Biogen/IDEC
Sequence (P29274 whole entry): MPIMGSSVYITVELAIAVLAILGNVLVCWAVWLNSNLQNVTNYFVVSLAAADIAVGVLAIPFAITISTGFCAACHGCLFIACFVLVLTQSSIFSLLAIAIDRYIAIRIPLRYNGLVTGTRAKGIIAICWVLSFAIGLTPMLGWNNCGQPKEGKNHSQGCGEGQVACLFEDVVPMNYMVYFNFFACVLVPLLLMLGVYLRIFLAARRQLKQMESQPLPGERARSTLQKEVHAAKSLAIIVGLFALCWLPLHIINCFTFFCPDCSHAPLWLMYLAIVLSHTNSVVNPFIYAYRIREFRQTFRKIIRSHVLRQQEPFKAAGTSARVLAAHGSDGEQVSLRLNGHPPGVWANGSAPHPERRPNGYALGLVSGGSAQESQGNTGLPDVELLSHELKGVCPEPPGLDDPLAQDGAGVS
Test: Radioligand binding displacement assay
Conditions: newly acquired, read-out: K i ± SEM, Radioligand binding
Procedure: The reference radioligand binding data were published before by our lab or were acquired as described before. For the validation of MS binding assays, radioligand binding data that was published previously by our group was used. In the case that no in-house radioligand binding data was available, the concerning assays were performed following previously established protocols.
endpointName: Ki (nM)
Numeric only. Scale: nM

Task item: Item C#CCn1c(=O)c2c(nc(C=Cc3cccc(OC)c3)n2C)n(CCCO)c1=O has what recorded Ki?
Reply: 5.7

Reference source: paper PMC4648803
